Listed here are binders together with their documented SPOT peptide array binding signal intensity.
- TESTED TARGET: CaHse1
- TEST NAME: SPOT peptide array binding signal intensity (averaged, normalized) (arbitrary units (background-subtracted, floor 0; scale differs between SH3 domains)); higher = stronger binding of the SH3 domain to the peptide

As a guide, the following entries are already answered.
>  <BINDER>
VATSTSPKLPPRGKQ

>  <MEASURED VALUE>
37

$$$$
>  <BINDER>
VYTRTAFQIPGDDKI

>  <MEASURED VALUE>
≤ 0

$$$$
>  <BINDER>
AIPPPVPNRPGGTTN

>  <MEASURED VALUE>
1.75

$$$$

Now examine the next entry.
QUERY: Specify measured SPOT peptide array binding signal intensity for GKFIPSRPAPKPPSS .
RESULT: ≤ 0
